System: Bacillus subtilis
Test: Antibacterial activity against Bacillus subtilis ATCC 6633 after 24 hrs by MTT assay
Type: functional
Conditions: ATCC 6633, 24 h
Please respond with reported MIC50 for every item in the list.
Give your result in mg/L as a bare value.

Recorded MIC50 for "O=C1OCC(Nc2cccc(Cl)c2)=C1c1ccc(Cl)cc1" , please?
10.9

Recorded MIC50 for "O=C1OCC(Nc2ccccc2Cl)=C1c1cccc(Cl)c1" , please?
47.5

Recorded MIC50 for "O=C1OCC(Nc2cc(Cl)cc(Cl)c2)=C1c1cccc(Br)c1" , please?
1.2

Recorded MIC50 for "NC[C@H]1O[C@H](O[C@H]2[C@H](O)[C@@H](O[C@H]3O[C@H](CO)[C@@H](O)[C@H](N)[C@H]3O)[C@H](N)C[C@@H]2N)[C@H](O)[C@@H](O)[C@@H]1O" , please?
0.42

Recorded MIC50 for "O=C1OCC(Nc2ccccc2)=C1c1ccc(Br)cc1" , please?
41.7

Recorded MIC50 for "O=C1OCC(Nc2cc(Cl)cc(Cl)c2)=C1c1ccc(O)cc1" , please?
9.8

Recorded MIC50 for "O=C1OCC(Nc2cc(Cl)cc(Cl)c2)=C1c1cccc(Cl)c1" , please?
13.4

Recorded MIC50 for "O=C1OCC(Nc2cc(Br)cc(Br)c2)=C1c1cccc(Br)c1" , please?
8.8

Recorded MIC50 for "O=C1OCC(Nc2ccc(Br)cc2)=C1c1cccc(Br)c1" , please?
31.6

Recorded MIC50 for "O=C1OCC(Nc2cc(F)cc(F)c2)=C1c1ccc(Br)cc1" , please?
19.4

----------
Test system: Bacillus subtilis
Test: Antibacterial activity against Bacillus subtilis ATCC 6633 after 24 hrs by MTT assay
Type: functional
Conditions: ATCC 6633, 24 h
Measured property: MIC50

Recorded MIC50 for "O=C1OCC(Nc2ccc(O)cc2)=C1c1ccc(Br)cc1" , please?
> 50 µg/mL

Recorded MIC50 for "O=C1OCC(Nc2ccc([N+](=O)[O-])cc2)=C1c1ccc(Br)cc1" , please?
> 50 µg/mL

Recorded MIC50 for "COc1cc(NC2=C(c3ccc(Br)cc3)C(=O)OC2)cc(OC)c1" , please?
> 50 µg/mL

Recorded MIC50 for "Cc1ccc(NC2=C(c3ccc(Br)cc3)C(=O)OC2)cc1" , please?
> 50 µg/mL

Recorded MIC50 for "COc1ccccc1NC1=C(c2ccc(Br)cc2)C(=O)OC1" , please?
> 50 µg/mL

Recorded MIC50 for "COc1ccc(NC2=C(c3ccc(Br)cc3)C(=O)OC2)cc1" , please?
> 50 µg/mL

Recorded MIC50 for "O=C1OCC(Nc2ccccc2[N+](=O)[O-])=C1c1ccc(Br)cc1" , please?
> 50 µg/mL
